// reported EC50 per item
# System: HCV replicon
# ASSAY_SUMMARY: Replicon based assay of HCV replication inhibition (NPT ELISA)
# Type: cell-based, Hepatitis C virus
# EXPERIMENTAL_SETUP: Hepatitis C virus, replicon based assay of HCV replication inhibition; Table IV; read-out: Activity

| COMPOUND | EC50 |
| --- | --- |
| CCCCCCC#Cc1ccc(Nc2nc(-c3cccnc3)cs2)cc1C(F)(F)F | < 1000 nM |
| Cc1ccc(Nc2nc(-c3cccnc3)cs2)cc1 | > 10000 nM |
| CCCCCOc1ccc2nc(NC(=O)c3cccnc3)sc2c1 | > 10000 nM |
| COc1ccc(Nc2nc(-c3cccnc3)cs2)cc1OC1CCCC1 | 1000 to 10000 nM |
| FC(F)(F)Oc1ccc(Nc2nc(-c3cccnc3)cs2)cc1 | 1000 to 10000 nM |
| COc1ncc(-c2csc(Nc3ccc(N4CCC5CCCCC5C4)c(C(F)(F)F)c3)n2)cn1 (stereo not drawn) | < 1000 nM |
| CCCCCCCCOc1ccc(Nc2nc(-c3cccnc3)c(Cl)s2)cc1C(F)(F)F | < 1000 nM |
| CCOC(=O)Cc1ccc(-c2csc(Nc3ccc(OCCCCc4cccs4)c(C(F)(F)F)c3)n2)s1 | 1000 to 10000 nM |
| FC(F)(F)c1cc(Nc2nc(-c3cccnc3)cs2)ccc1OCCCCc1cccs1 | < 1000 nM |
